biological target: Histone deacetylase 2 (Homo sapiens); test: Inhibition of full-length recombinant human C-terminal GST tagged HDAC2 expressed in Sf9 insect cells using aminoluciferin peptide substrate at 100 nM preincubated for 3 hrs followed by substrate addition and measured after 30 mins by HDAC-Glo I/II chemiluminescence assay; conditions: time 3.5 hrs
metric: inhibition
Record the result as a number with its unit.

>>> measured_value("Nc1ccc(-c2cccs2)cc1NC(=O)c1ccc(-c2cn(CCc3ccccn3)nn2)s1")
"71%"

Would you mind giving inhibition for every compound in the list below?
1. Nc1ccc(-c2ccc(F)cc2)cc1NC(=O)CCc1cn(-c2ccc([N+](=O)[O-])cc2)nn1
2. Nc1ccc(-c2cccs2)cc1NC(=O)c1cn(CC23CC4CC(CC(C4)C2)C3)nn1
3. Nc1ccc(-c2cccnc2)cc1NC(=O)CCc1cn(Cc2nc3ccccc3[nH]2)nn1
4. Nc1ccc(-c2ccsc2)cc1NC(=O)CCc1cn(-c2ccc([N+](=O)[O-])cc2)nn1
5. Nc1ccc(-c2cccnc2)cc1NC(=O)CCc1cn(CCc2ccc(C(=O)O)cc2)nn1
6. Nc1ccc(-c2ccsc2)cc1NC(=O)c1cn(-c2cccc3ccccc23)nn1
7. Nc1ccc(-c2ccc(F)cc2)cc1NC(=O)CCc1cn(Cc2cc3ccccc3s2)nn1
8. Nc1ccc(-c2cccnc2)cc1NC(=O)CCc1cn(Cc2ccc(C(=O)O)cc2)nn1

1. 7%
2. 0%
3. 11%
4. 0%
5. 9%
6. 0%
7. 3%
8. 7%

----------
biological target: Histone deacetylase 2 (Homo sapiens); test: Inhibition of full-length recombinant human C-terminal GST tagged HDAC2 expressed in Sf9 insect cells using aminoluciferin peptide substrate at 100 nM preincubated for 3 hrs followed by substrate addition and measured after 30 mins by HDAC-Glo I/II chemiluminescence assay; settings: time 3.5 hrs
Consider the following compounds; for each one, report its inhibition.

Solved cases (8 shown):
>>> measured_value("Cc1ccc(CCn2cc(C(=O)Nc3cc(-c4cccs4)ccc3N)nn2)cc1")
"16%"
>>> measured_value("Nc1ccc(-c2cccs2)cc1NC(=O)CCc1cn(CC(=O)c2ccccc2)nn1")
"13%"
>>> measured_value("Nc1ccc(-c2cccnc2)cc1NC(=O)CCc1cn(-c2ccc(Br)cc2)nn1")
"2%"
>>> measured_value("Nc1ccc(-c2ccc(F)cc2)cc1NC(=O)c1cn(CCc2ccccc2C(F)(F)F)nn1")
"0%"
>>> measured_value("Nc1ccc(-c2ccccc2)cc1NC(=O)CCc1cn(CC(=O)Nc2ccc(F)cc2)nn1")
"11%"
>>> measured_value("Nc1ccc(-c2ccsc2)cc1NC(=O)CCc1cn(Cc2ccc(C(=O)O)cc2)nn1")
"31%"
>>> measured_value("Nc1ccc(-c2cccs2)cc1NC(=O)CCc1cn(CCc2ccc(C(F)(F)F)cc2)nn1")
"5%"
>>> measured_value("Nc1ccc(-c2ccc(F)cc2)cc1NC(=O)CCc1cn(CCc2cccc([N+](=O)[O-])c2)nn1")
"41%"

Would you mind giving inhibition for every compound in the list below?
1. Nc1ccc(-c2cccs2)cc1NC(=O)c1cccc(-c2cn(Cc3cc4ccccc4s3)nn2)c1
2. Nc1ccc(-c2ccc(F)cc2)cc1NC(=O)CCc1cn(Cc2ccc(C(=O)O)cc2)nn1
3. Nc1ccc(-c2cccnc2)cc1NC(=O)CCc1cn(Cc2cccc(-c3ccccc3)c2)nn1

0%
39%
0%

Would you mind giving inhibition for every compound in the list below?
1. Nc1ccc(-c2cccs2)cc1NC(=O)c1cccc(-c2cn(CCCCCCC(=O)O)nn2)c1
2. Nc1ccc(-c2ccc(F)cc2)cc1NC(=O)CCc1cn(Cc2nc3ccccc3[nH]2)nn1
3. Nc1ccc(-c2ccsc2)cc1NC(=O)c1cn(Cc2cc3ccccc3s2)nn1
4. COc1ccc(-n2cc(C(=O)Nc3cc(-c4cccs4)ccc3N)nn2)cc1

["30%", "32%", "0%", "6%"]

Would you mind giving inhibition for every compound in the list below?
1. Nc1ccc(-c2ccccc2)cc1NC(=O)c1cn(CCc2cccc(F)c2)nn1
2. Cc1ccc(CCn2cc(-c3cccc(C(=O)Nc4cc(-c5cccs5)ccc4N)c3)nn2)cc1
3. Cc1cccc(C)c1NC(=O)Cn1cc(CCC(=O)Nc2cc(-c3ccccc3)ccc2N)nn1
4. Cc1cccc(C)c1NC(=O)Cn1cc(C(=O)Nc2cc(-c3ccc(F)cc3)ccc2N)nn1

["0%", "4%", "19%", "33%"]

----------
target: Histone deacetylase 2 (Homo sapiens); test: Inhibition of full-length recombinant human C-terminal GST tagged HDAC2 expressed in Sf9 insect cells using aminoluciferin peptide substrate at 100 nM preincubated for 3 hrs followed by substrate addition and measured after 30 mins by HDAC-Glo I/II chemiluminescence assay; conditions: time 3.5 hrs
Criterion: inhibition meeting or surpassing 5%. Met: True. Not met: False.

Solved entries:
>>> assigned_category("Nc1ccc(-c2ccsc2)cc1NC(=O)c1cn(CCc2ccccc2[N+](=O)[O-])nn1")
"False"
>>> assigned_category("Nc1ccc(-c2cccs2)cc1NC(=O)c1cccc(-c2cn(CC(=O)Nc3ccc(F)cc3)nn2)c1")
"False"
>>> assigned_category("Nc1ccc(-c2cccs2)cc1NC(=O)c1ccc(-c2cn(Cc3nc4ccccc4[nH]3)nn2)s1")
"True"

Assess whether reported inhibition for Nc1ccc(-c2cccs2)cc1NC(=O)c1ccc(-c2cn(CCN3CCc4ccccc4C3)nn2)cc1 sits at 5% or higher.
False

Now the compound Nc1ccc(-c2cccs2)cc1NC(=O)CCc1cn(CC23CC4CC(CC(C4)C2)C3)nn1
True

Now the compound Nc1ccc(-c2ccsc2)cc1NC(=O)c1cn(Cc2ccc(-c3ccccc3)cc2)nn1
False

----------
Consider the following compounds; for each one, report its inhibition.
biological target: Histone deacetylase 2 (Homo sapiens); test: Inhibition of full-length recombinant human C-terminal GST tagged HDAC2 expressed in Sf9 insect cells using aminoluciferin peptide substrate at 100 nM preincubated for 3 hrs followed by substrate addition and measured after 30 mins by HDAC-Glo I/II chemiluminescence assay; conditions: time 3.5 hrs
Numbers only, in %.

Solved cases (3 shown):
>>> measured_value("Nc1ccc(-c2cccs2)cc1NC(=O)c1cccc(-c2cn(Cc3ccc(C(=O)O)cc3)nn2)c1")
55
>>> measured_value("Nc1ccc(-c2cccnc2)cc1NC(=O)CCc1cn(CCCc2ccccc2)nn1")
15
>>> measured_value("Nc1ccc(-c2cccs2)cc1NC(=O)c1ccc(-c2cn(CCN3CCc4ccccc4C3)nn2)s1")
32

// next entry
What does the record list as inhibition for Nc1ccc(-c2ccccc2)cc1NC(=O)c1cn(CCCCCCCC(=O)O)nn1 ?
0

----------
Consider the following compounds; for each one, report its inhibition.
biological target: Histone deacetylase 2 (Homo sapiens); test: Inhibition of full-length recombinant human C-terminal GST tagged HDAC2 expressed in Sf9 insect cells using aminoluciferin peptide substrate at 100 nM preincubated for 3 hrs followed by substrate addition and measured after 30 mins by HDAC-Glo I/II chemiluminescence assay; settings: time 3.5 hrs
One number for each entry, in %.

Solved cases (6 shown):
>>> measured_value("Nc1ccc(-c2cccs2)cc1NC(=O)c1cn(CCc2ccc(C(=O)O)cc2)nn1")
16
>>> measured_value("Nc1ccc(-c2cccs2)cc1NC(=O)c1cccc(-c2cn(Cc3ccc4ccccc4n3)nn2)c1")
4
>>> measured_value("Nc1ccc(-c2cccs2)cc1NC(=O)CCc1cn(C[S+]([O-])c2ccccc2)nn1 (stereo not drawn)")
17
>>> measured_value("Nc1ccc(-c2ccccc2)cc1NC(=O)c1cn(CCc2cccc(C(F)(F)F)c2)nn1")
0
>>> measured_value("Nc1ccc(-c2cccnc2)cc1NC(=O)CCc1cn(CCc2ccc(F)cc2)nn1")
3
>>> measured_value("Nc1ccc(-c2ccc(F)cc2)cc1NC(=O)CCc1cn(-c2ccc(I)cc2)nn1")
0

Would you mind giving inhibition for every compound in the list below?
1. Nc1ccc(-c2cccs2)cc1NC(=O)c1ccc(-c2cn(CC3CCCCC3)nn2)s1
2. Nc1ccc(-c2ccc(F)cc2)cc1NC(=O)c1cn(CCc2cccc3ccccc23)nn1
3. Nc1ccc(-c2cccnc2)cc1NC(=O)CCc1cn(CC2CCCCC2)nn1

[0, 0, 0]

Would you mind giving inhibition for every compound in the list below?
1. Nc1ccc(-c2cccs2)cc1NC(=O)c1cn(CCC2CCCC2)nn1
2. Nc1ccc(-c2cccs2)cc1NC(=O)CCc1cn(CCc2c[nH]c3ccccc23)nn1
3. Nc1ccc(-c2ccccc2)cc1NC(=O)CCc1cn(CCN2CCc3ccccc3C2)nn1
4. Cc1ccc(CCn2cc(C(=O)Nc3cc(-c4ccc(F)cc4)ccc3N)nn2)cc1

1. 0
2. 18
3. 11
4. 7

----------
biological target: Histone deacetylase 2 (Homo sapiens, UniProt Q92769); assay: Inhibition of full-length recombinant human C-terminal GST tagged HDAC2 expressed in Sf9 insect cells using aminoluciferin peptide substrate at 100 nM preincubated for 3 hrs followed by substrate addition and measured after 30 mins by HDAC-Glo I/II chemiluminescence assay; conditions: time 3.5 hrs
Sequence (Q92769 whole entry): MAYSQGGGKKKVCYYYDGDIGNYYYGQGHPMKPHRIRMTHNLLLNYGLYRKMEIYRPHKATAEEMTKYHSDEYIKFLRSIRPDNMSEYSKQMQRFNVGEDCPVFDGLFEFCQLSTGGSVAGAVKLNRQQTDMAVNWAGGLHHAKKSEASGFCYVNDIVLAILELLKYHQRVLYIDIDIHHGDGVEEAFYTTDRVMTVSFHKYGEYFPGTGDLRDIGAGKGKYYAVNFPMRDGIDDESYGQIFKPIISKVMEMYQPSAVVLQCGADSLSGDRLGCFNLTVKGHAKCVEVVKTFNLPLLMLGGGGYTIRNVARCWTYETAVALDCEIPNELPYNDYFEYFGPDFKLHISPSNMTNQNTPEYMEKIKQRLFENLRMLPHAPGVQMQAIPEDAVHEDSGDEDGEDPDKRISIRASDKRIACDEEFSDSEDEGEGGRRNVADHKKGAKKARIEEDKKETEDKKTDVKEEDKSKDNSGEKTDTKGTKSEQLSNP
metric: inhibition (%)
One number for each entry, in %.

>>> measured_value("COc1ccc(CCn2cc(C(=O)Nc3cc(-c4ccsc4)ccc3N)nn2)cc1")
6
>>> measured_value("Cc1cccc(CCn2cc(-c3ccc(C(=O)Nc4cc(-c5cccs5)ccc4N)cc3)nn2)c1")
26
>>> measured_value("COc1ccc(CCn2cc(-c3cccc(C(=O)Nc4cc(-c5cccs5)ccc4N)c3)nn2)cc1")
1
>>> measured_value("Nc1ccc(-c2cccs2)cc1NC(=O)c1cccc(-c2cn(CC3CCCCC3)nn2)c1")
0
>>> measured_value("Nc1ccc(-c2cccs2)cc1NC(=O)c1cccc(-c2cn(CCc3ccsc3)nn2)c1")
0

Would you mind giving inhibition for every compound in the list below?
1. Nc1ccc(-c2cccs2)cc1NC(=O)c1ccc(-c2cn(-c3ccc(Br)cc3)nn2)cc1
2. Nc1ccc(-c2ccsc2)cc1NC(=O)CCc1cn(CCc2c[nH]c3ccccc23)nn1
3. Nc1ccc(-c2cccs2)cc1NC(=O)c1ccc(-c2cn(CCc3c[nH]c4ccccc34)nn2)cc1
4. COc1ccc(CCn2cc(-c3ccc(C(=O)Nc4cc(-c5cccs5)ccc4N)s3)nn2)cc1

1. 0
2. 22
3. 19
4. 30

Would you mind giving inhibition for every compound in the list below?
1. Nc1ccc(-c2cccs2)cc1NC(=O)c1cn(Cc2cccc(C(=O)O)c2)nn1
2. Nc1ccc(-c2ccc(F)cc2)cc1NC(=O)CCc1cn(CCc2ccc([N+](=O)[O-])cc2)nn1
3. Nc1ccc(-c2cccs2)cc1NC(=O)c1cn(CCC2CCCCC2)nn1

1. 0
2. 20
3. 3

Would you mind giving inhibition for every compound in the list below?
1. Nc1ccc(-c2ccccc2)cc1NC(=O)c1cn(CC(=O)Nc2ccc(F)cc2)nn1
2. Nc1ccc(-c2ccccc2)cc1NC(=O)CCc1cn(CCC23CC4CC(CC(C4)C2)C3)nn1

[0, 0]

Would you mind giving inhibition for every compound in the list below?
1. Nc1ccc(-c2ccsc2)cc1NC(=O)c1cn(Cc2ccc3ccccc3c2)nn1
2. Nc1ccc(-c2cccs2)cc1NC(=O)c1cn(CCc2ccsc2)nn1
3. Nc1ccc(-c2cccs2)cc1NC(=O)CCc1cn(CCC23CC4CC(CC(C4)C2)C3)nn1

[3, 0, 5]

Source of measurements: ChEMBL document CHEMBL5390237
